target: MMP-9 (Homo sapiens, UniProt P14780); construct: purchased Sino Biological 10327-HNAH; assay: MMP-9 inhibition assay (fluorogenic peptide substrate); type: biochemical; set-up: scale not given here; details: MMP-9, concentration 0.08 µM
Sequence (P14780 107-707 limits assumed): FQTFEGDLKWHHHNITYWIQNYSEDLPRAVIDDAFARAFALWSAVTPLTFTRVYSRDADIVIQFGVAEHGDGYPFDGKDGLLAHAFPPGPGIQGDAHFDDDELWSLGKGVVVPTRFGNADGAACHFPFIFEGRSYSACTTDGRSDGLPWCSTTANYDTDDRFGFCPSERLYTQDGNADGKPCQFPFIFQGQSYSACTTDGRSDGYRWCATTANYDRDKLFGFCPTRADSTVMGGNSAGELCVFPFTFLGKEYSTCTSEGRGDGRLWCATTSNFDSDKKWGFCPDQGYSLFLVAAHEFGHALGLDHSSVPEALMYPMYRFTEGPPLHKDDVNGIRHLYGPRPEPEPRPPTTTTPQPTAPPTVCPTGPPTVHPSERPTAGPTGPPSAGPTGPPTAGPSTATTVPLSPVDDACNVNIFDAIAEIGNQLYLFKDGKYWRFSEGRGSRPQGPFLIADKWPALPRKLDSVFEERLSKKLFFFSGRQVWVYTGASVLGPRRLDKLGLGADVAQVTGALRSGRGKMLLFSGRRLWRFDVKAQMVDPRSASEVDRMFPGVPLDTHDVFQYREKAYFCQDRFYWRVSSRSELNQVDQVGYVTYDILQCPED
Measured remaining enzyme activity (% of control) of individual entries
Measured Property: remaining enzyme activity (% of control)

O=C(Cn1cnc2c(oc3ccccc32)c1=O)NCc1c[nH]nn1 : 89.67
O=C(CCC(=O)NCc1c[nH]nn1)NCCOCCOCCNC(=O)Cn1cnc2c(oc3ccccc32)c1=O : 100.62
O=C(CCC(=O)NCc1c[nH]nn1)NCCCCCCCCNC(=O)Cn1cnc2c(oc3ccccc32)c1=O : 91.89
O=C(Cn1cnc2c(oc3ccccc32)c1=O)NCCCCCCCCNC(=O)c1cncc(O)c1 : 90.17
O=C(Cn1cnc2c(oc3ccccc32)c1=O)NCCNC(=O)c1cncc(O)c1 : 88.36
